Assay context: buffer; pH 7.4; 200.0 µM
Reported property: log10(solubility kinetic) (log10 of the value in µg/mL)
Values are log10 of solubility kinetic in µg/mL.

Please list log10(solubility kinetic) recorded for the compound `NC(=O)c1c(NC(=O)c2ccc(F)cc2Cl)sc2c1CCC2`
0.00

Please list log10(solubility kinetic) recorded for the compound `CN(Cc1ccccc1F)C(=O)c1ccccc1Sc1ccccc1C#N`
1.23

Please list log10(solubility kinetic) recorded for the compound CC1CCCCC1NC(=O)Cn1c(=O)cnc2ccccc21 (centres undefined)
0.70

Please list log10(solubility kinetic) recorded for the compound `CN(C)c1ccc(/C=C/C(=O)c2ccc3c(c2)OCO3)cc1`
0.46

Please list log10(solubility kinetic) recorded for the compound `O=C(CSc1cc(Cl)ccc1Cl)NCCCn1ccnc1`
1.66

Please list log10(solubility kinetic) recorded for the compound `COc1ccc(C(=O)Nc2cccc3nc(C)ccc23)c(OC)c1`
1.07

Please list log10(solubility kinetic) recorded for the compound `CC(C)CN(CC(C)C)C(=S)Nc1ccc(Cl)cc1`
0.34

Please list log10(solubility kinetic) recorded for the compound `N#Cc1c(N2CCCC2)nsc1-c1ccccc1`
-0.40

Please list log10(solubility kinetic) recorded for the compound `N/C(=N/OC(=O)c1cccc([N+](=O)[O-])c1)c1cccc([N+](=O)[O-])c1`
-0.30

Please list log10(solubility kinetic) recorded for the compound `COc1ccc(Cl)cc1NC(=O)Cn1c(C)csc1=O`
1.26

Please list log10(solubility kinetic) recorded for the compound COc1ccc(CC(C)CC(=O)Nc2ccc(OC)cc2)cc1 (centres undefined)
0.66

Please list log10(solubility kinetic) recorded for the compound `O=C(COC(=O)/C=C/c1cccs1)Nc1ccc(F)cc1`
0.92

Please list log10(solubility kinetic) recorded for the compound `Cc1ccc(C)c(S(=O)(=O)NCc2ccc3c(c2)OCO3)c1`
1.68

Please list log10(solubility kinetic) recorded for the compound `COc1cccc(/C(N)=N/OC(=O)Cc2ccccc2[N+](=O)[O-])c1`
1.50

Please list log10(solubility kinetic) recorded for the compound `CCc1cc(C(=O)Nc2ccccc2N2CCOCC2)sc1C`
0.34

Please list log10(solubility kinetic) recorded for the compound `Clc1cc(Cl)cc(CN2CCSCC2)c1`
0.65

Please list log10(solubility kinetic) recorded for the compound `CCC(=O)Nc1nc(-c2cc([N+](=O)[O-])cs2)cs1`
0.00

Please list log10(solubility kinetic) recorded for the compound `Cc1cc(C)nc(NC(=O)c2ccc(Cl)cc2Cl)n1`
1.62

Please list log10(solubility kinetic) recorded for the compound `Cc1ccc2c(c1)sc1nc(=O)n(-c3ccccc3)c(=O)n12`
0.36

Please list log10(solubility kinetic) recorded for the compound COc1ccccc1-c1nc(C#N)c(N2CC(C)CC(C)C2)o1 (centres undefined)
0.18

Please list log10(solubility kinetic) recorded for the compound `O=S(=O)(NCCc1ccccc1)c1ccc(Br)s1`
1.44

Please list log10(solubility kinetic) recorded for the compound CCCN1C(=O)C(O)(c2c(C)[nH]c3ccccc23)c2ccccc21 (centres undefined)
1.42

Please list log10(solubility kinetic) recorded for the compound `CCOc1ccc2c(c1)ncn2Cc1ccccc1`
1.51

Please list log10(solubility kinetic) recorded for the compound `CSc1ncccc1C(=O)NC1CCN(Cc2ccccc2)CC1`
1.68

Please list log10(solubility kinetic) recorded for the compound `CCCOc1ccc(/C=C2/C(=O)ON=C2C)cc1Cl`
1.45

Please list log10(solubility kinetic) recorded for the compound CC(CCc1ccccc1)NC(=O)c1cccc(F)c1 (centres undefined)
1.56

Please list log10(solubility kinetic) recorded for the compound `Cc1ccc(S(=O)(=O)NC(=O)Nc2c(C)cccc2C)cc1`
1.53

Please list log10(solubility kinetic) recorded for the compound `COc1ccc(C(=O)NCCNc2ccc([N+](=O)[O-])cn2)cc1`
1.21

Please list log10(solubility kinetic) recorded for the compound `N#Cc1ccc(-c2cccnc2)nc1SCC(=O)c1ccccc1`
0.45

Please list log10(solubility kinetic) recorded for the compound `CC(=O)n1cc(Nc2ccc([N+](=O)[O-])cc2)c2ccccc21`
0.66

Please list log10(solubility kinetic) recorded for the compound `COc1cc(NC(=O)CCCn2c(=O)oc3ccccc32)cc(OC)c1`
1.38

Please list log10(solubility kinetic) recorded for the compound `O=C(Nc1ccccc1Cl)c1csc(-c2cccnc2)n1`
0.63

Please list log10(solubility kinetic) recorded for the compound CC(=O)c1ccc(NC(=S)N2CCCC(C(F)(F)F)C2)cc1 (centres undefined)
1.68

Reference source: PubChem BioAssay AID1996
